assay.context: wild goldfish sample 03, 2012, wet weight
Reported plasma concentration, CPM wild-03 values are given for each entry in this list.
The reply should contain only the number, in ng/g.

Some solved cases for reference:
{"molecule": "COc1ccc(C(CN(C)C)C2(O)CCCCC2)cc1 (stereo not shown) [Venlafaxine]", "value.unit": "ng/g", "test.result": 0.042}
{"molecule": "CN(C)CCC=C1c2ccccc2CC(O)c2ccccc21 (stereo not shown) [10-hydroxy-amitriptyline]", "value.unit": "ng/g", "test.result": 0.058}
{"molecule": "Cn1c(=O)c2c(ncn2C)n(C)c1=O [Caffeine]", "value.unit": "ng/g", "test.result": 1.565}
{"molecule": "NCCC(Oc1ccc(C(F)(F)F)cc1)c1ccccc1 (stereo not shown) [Norfluoxetine]", "value.unit": "ng/g", "test.result": 1.1}
{"molecule": "CCN(CC)C(=O)c1cccc(C)c1 [DEET, N,N-Diethyl-m-toluamide]", "value.unit": "ng/g", "test.result": 0.56}

Value of plasma concentration, CPM wild-03 reported for the molecule CN(C)CCC=C1c2ccccc2CCc2ccccc21 [Amitriptyline] is 0.091

Value of plasma concentration, CPM wild-03 reported for the molecule Cc1ccc(C)c(OCCCC(C)(C)C(=O)O)c1 [Gemfibrozil] is 0.86

====

experiment: in vivo
assay.context: goldfish (Carassius auratus), in vivo, plasma concentration, CPM3 caged, CPM3, 07-2014, pooled plasma, wet weight
Reported concentration at 21 days values are given for each entry in this list.
The reply should contain only the number, in ng/g.

Value of concentration at 21 days reported for the compound CN(C)CCC=C1c2ccccc2CCc2ccccc21 is 0.031

====

experiment: in vivo
assay.context: goldfish (Carassius auratus), in vivo, plasma concentration, CPM2 caged
assay.readout: concentration at 21 days (ng/g)
The reply should contain only the number, in ng/g.

Some solved cases for reference:
{"compound": "CN(C)CCCC1(c2ccc(F)cc2)OCc2cc(C#N)ccc21 (centres unmarked)", "assay.readout": "concentration at 21 days", "value.unit": "ng/g", "test.result": 0.163}
{"compound": "CC1CCc2cc(F)cc3c(=O)c(C(=O)O)cn1c23 (centres unmarked)", "assay.readout": "concentration at 21 days", "value.unit": "ng/g", "test.result": 0.146}
{"compound": "C[C@H](O)C(=O)Nc1c(I)c(C(=O)NC(CO)CO)c(I)c(C(=O)NC(CO)CO)c1I", "assay.readout": "concentration at 21 days", "value.unit": "ng/g", "test.result": 17.6}

Value of concentration at 21 days reported for the compound C[C@]12CCC(=O)C=C1CC[C@@H]1[C@@H]2[C@@H](O)C[C@@]2(C)[C@H]1CC[C@]2(O)C(=O)CO [Hydrocortisone] is 107

====

experiment: in vivo
assay.context: goldfish (Carassius auratus), in vivo, plasma concentration, CPM1 caged, CPM1, 07-2014, pooled plasma, wet weight
assay.readout: concentration at 21 days (ng/g)
The reply should contain only the number, in ng/g.

Value of concentration at 21 days reported for the molecule Cn1c(=O)c2c(ncn2C)n(C)c1=O is 3.38

====

experiment: in vivo
assay.context: goldfish (Carassius auratus), plasma, plasma concentration, CPM2 caged, CPM2, 07-2014, pooled plasma, wet weight
assay.readout: concentration at 21 days (ng/g)
The reply should contain only the number, in ng/g.

Value of concentration at 21 days reported for the compound Cc1ccc(C)c(OCCCC(C)(C)C(=O)O)c1 is 0.146

====

assay.context: male, goldfish (Carassius auratus), in vivo
Reported plasma concentration, CPM wild-02 values are given for each entry in this list.
Record the result as number plus unit.

Some solved cases for reference:
{"molecule": "C[C@H](O)C(=O)Nc1c(I)c(C(=O)NC(CO)CO)c(I)c(C(=O)NC(CO)CO)c1I [Iopamidol]", "plasma concentration, CPM wild-02": "8.15 ng/g"}
{"molecule": "C[C@]12CCC(=O)C=C1CC[C@@H]1[C@@H]2[C@@H](O)C[C@@]2(C)[C@H]1CC[C@]2(O)C(=O)CO [Hydrocortisone]", "plasma concentration, CPM wild-02": "134 ng/g"}
{"molecule": "Cc1cc(C)nc(NS(=O)(=O)c2ccc(N)cc2)n1 [Sulfamethazine]", "plasma concentration, CPM wild-02": "0.084 ng/g"}
{"molecule": "CC1CCc2cc(F)cc3c(=O)c(C(=O)O)cn1c23 (centres unmarked) [Flumequine]", "plasma concentration, CPM wild-02": "0.188 ng/g"}

Lab note: next molecule to report on.
Value of plasma concentration, CPM wild-02 reported for the molecule CN(C)CCCC1(c2ccc(F)cc2)OCc2cc(C#N)ccc21 (centres unmarked) [Citalopram] is 0.127 ng/g

====

assay.context: Cootes carp 01, 2011, male, wet weight
assay.readout: plasma concentration, CPM-C 01 (ng/g)
The reply should contain only the number, in ng/g.

{"compound": "Cc1ccc(C)c(OCCCC(C)(C)C(=O)O)c1 [Gemfibrozil]", "plasma concentration, CPM-C 01, ng/g": 0.158}
{"compound": "CCCCC(=O)N(Cc1ccc(-c2ccccc2-c2nnn[nH]2)cc1)[C@H](C(=O)O)C(C)C [Valsartan]", "plasma concentration, CPM-C 01, ng/g": 0.422}

Value of plasma concentration, CPM-C 01 reported for the compound O=C(Nc1ccc(Cl)cc1)Nc1ccc(Cl)c(Cl)c1 [Triclocarban] is 0.317

Value of plasma concentration, CPM-C 01 reported for the compound NCCC(Oc1ccc(C(F)(F)F)cc1)c1ccccc1 (centres unmarked) [Norfluoxetine] is 0.338

Value of plasma concentration, CPM-C 01 reported for the compound CN(C)CCC=C1c2ccccc2CC(O)c2ccccc21 (centres unmarked) [10-hydroxy-amitriptyline] is 0.032

====

experiment: in vivo
assay.context: goldfish (Carassius auratus), in vivo, caged goldfish plasma, range of concentrations, Cootes Paradise Marsh; range
assay.readout: concentration at 21 days

Value of concentration at 21 days reported for the compound COc1ccc(C(CN(C)C)C2(O)CCCCC2)cc1 (stereo not shown) is 0.04 to 0.26 ng/g

====

assay.context: Jordan Harbour carp 78, Nov 7, 2011, male, wet weight
assay.readout: plasma concentration, JH-C 78

Some solved cases for reference:
{"molecule": "Cn1c(=O)c2c(ncn2C)n(C)c1=O", "plasma concentration, JH-C 78": "< 3.13 ng/g"}
{"molecule": "CCN(CC)C(=O)c1cccc(C)c1 [DEET, N,N-Diethyl-m-toluamide]", "plasma concentration, JH-C 78": "1.09 ng/g"}
{"molecule": "CC(C)Cc1ccc(C(C)C(=O)O)cc1 (stereo not shown)", "plasma concentration, JH-C 78": "< 3.13 ng/g"}

Value of plasma concentration, JH-C 78 reported for the molecule CC(C(=O)O)c1ccc(CC(C)(C)O)cc1 (stereo not shown) [2-Hydroxy-ibuprofen] is < 38.5 ng/g

====

Reported plasma concentration, JH-C 75 values are given for each entry in this list.
assay.context: Jordan Harbour carp 75, Nov 7, 2011, female, wet weight

Some solved cases for reference:
{"compound": "CC(C)Cc1ccc(C(C)C(=O)O)cc1 (stereo not drawn)", "plasma concentration, JH-C 75": "< 4.52 ng/g"}
{"compound": "CCN(CC)C(=O)c1cccc(C)c1 [DEET, N,N-Diethyl-m-toluamide]", "plasma concentration, JH-C 75": "0.914 ng/g"}
{"compound": "Cn1c(=O)c2c(ncn2C)n(C)c1=O", "plasma concentration, JH-C 75": "< 4.52 ng/g"}
{"compound": "COc1ccc(C(CN(C)C)C2(O)CCCCC2)cc1 (stereo not drawn)", "plasma concentration, JH-C 75": "0.060 ng/g"}

Value of plasma concentration, JH-C 75 reported for the compound CC(C(=O)O)c1ccc(CC(C)(C)O)cc1 (stereo not drawn) [2-Hydroxy-ibuprofen] is < 24.1 ng/g

Value of plasma concentration, JH-C 75 reported for the compound CCCCC(=O)N(Cc1ccc(-c2ccccc2-c2nnn[nH]2)cc1)[C@H](C(=O)O)C(C)C is < 1.2 ng/g

====

assay.context: Cootes carp 20, 2011, male, wet weight
assay.readout: plasma concentration, CPM-C 20

Some solved cases for reference:
{"molecule": "CC(C(=O)O)c1ccc(CC(C)(C)O)cc1 (stereo not drawn) [2-Hydroxy-ibuprofen]", "plasma concentration, CPM-C 20": "< 17.2 ng/g"}
{"molecule": "Cc1ccc(C)c(OCCCC(C)(C)C(=O)O)c1", "plasma concentration, CPM-C 20": "0.162 ng/g"}
{"molecule": "NCCC(Oc1ccc(C(F)(F)F)cc1)c1ccccc1 (stereo not drawn)", "plasma concentration, CPM-C 20": "0.179 ng/g"}
{"molecule": "CN(C)CCC=C1c2ccccc2CC(O)c2ccccc21 (stereo not drawn) [10-hydroxy-amitriptyline]", "plasma concentration, CPM-C 20": "0.016 ng/g"}
{"molecule": "CCCCC(=O)N(Cc1ccc(-c2ccccc2-c2nnn[nH]2)cc1)[C@H](C(=O)O)C(C)C", "plasma concentration, CPM-C 20": "0.431 ng/g"}
{"molecule": "O=C(Nc1ccc(Cl)cc1)Nc1ccc(Cl)c(Cl)c1", "plasma concentration, CPM-C 20": "0.324 ng/g"}
{"molecule": "CC(C)Cc1ccc(C(C)C(=O)O)cc1 (stereo not drawn)", "plasma concentration, CPM-C 20": "< 3.23 ng/g"}
{"molecule": "CCN(CC)C(=O)c1cccc(C)c1 [DEET, N,N-Diethyl-m-toluamide]", "plasma concentration, CPM-C 20": "0.35 ng/g"}

Value of plasma concentration, CPM-C 20 reported for the molecule COc1ccc(C(CN(C)C)C2(O)CCCCC2)cc1 (stereo not drawn) is 0.268 ng/g
